Tested on: MDA-MB (breast cancer)
Assay: ATP level assay (CellTiter-Glo), percent of control
Type: cell-based
Conditions: compound 100 uM + rotenone (approximately 1.25 μM), two hour incubation
# reported POC (percent of control) MDA-MB; entries follow

Sample records with POC (percent of control) MDA-MB:
O=S(=O)(NCc1c[nH]c2cccc(Br)c12)c1ccc(Cl)cc1 :: 37.3% of control
Cc1ccc(S(=O)(=O)NCc2c[nH]c3ccccc23)cc1 :: 80.5% of control
Cc1cccc2[nH]cc(CNS(=O)(=O)c3ccc(Cl)cc3)c12 :: 48.3% of control
Cc1ccc(S(=O)(=O)NCc2ccc3c(cnn3C)c2)cc1 :: 114% of control

Recorded POC (percent of control) MDA-MB (compound CC(=O)n1cc(CNS(=O)(=O)c2ccc(Cl)cc2)c2ccccc21 ): 71.9% of control

----------
# reported POC (percent of control) NCI-H196; entries follow
Test system: NCI-H196 (lung cancer)
Experiment: ATP level assay (CellTiter-Glo), percent of control
Assay type: cell-based
Details: compound 100 uM + 2DG (about 10-20 mM), two hour incubation

Sample records with POC (percent of control) NCI-H196:
O=[N+]([O-])c1cccc(S(=O)(=O)NCc2c[nH]c3ccccc23)c1 :: 92.9% of control
Cn1ncc2cc(CNS(=O)(=O)c3ccc(Cl)cc3)ccc21 :: 90.8% of control
CC(=O)n1cc(CNS(=O)(=O)c2ccc(Cl)cc2)c2ccccc21 :: 49.6% of control
O=S(=O)(NCc1c[nH]c2cccc(Br)c12)c1ccc(Cl)cc1 :: 117.2% of control
Cc1ccc(S(=O)(=O)NCc2ccc3ncccc3c2)cc1 :: 94.6% of control

Recorded POC (percent of control) NCI-H196 (compound O=S(=O)(NCc1cncnc1)c1ccccc1 ): 115.4% of control

Recorded POC (percent of control) NCI-H196 (compound O=S(=O)(NCc1ccco1)c1ccc(Cl)cc1 ): 90.6% of control

Recorded POC (percent of control) NCI-H196 (compound Cn1cc(CNS(=O)(=O)c2ccc(Cl)cc2)cn1 ): 114.7% of control

Recorded POC (percent of control) NCI-H196 (compound Cc1cccc2c(CNS(=O)(=O)c3ccccc3)c[nH]c12 ): 34.3% of control

----------
Tested on: T47D (breast cancer)
Assay: ATP level assay (CellTiter-Glo), percent of control
Format: cell-based
Conditions: compound 100 uM + 2DG (about 10-20 mM), two hour incubation
Property label: POC (percent of control) T47D

Cc1ccc(S(=O)(=O)NCc2ccc3c(cnn3C)c2)cc1 [Compound 9] :: 58.9% of control
Cc1cccc2c(CNS(=O)(=O)c3ccccc3)c[nH]c12 [Compound 6] :: 19.7% of control
Cc1ccc(S(=O)(=O)NCc2coc(C)n2)cc1 [Compound 21] :: 99.4% of control

Recorded POC (percent of control) T47D (molecule Cc1ccc(S(=O)(=O)NCc2nccs2)cc1 [Compound 19] ): 87.4% of control

Recorded POC (percent of control) T47D (molecule COc1ncccc1CNS(=O)(=O)c1ccc(C)cc1 [Compound 12] ): 58.1% of control

----------
Tested on: MCF7 (breast cancer)
Assay: ATP level assay (CellTiter-Glo), percent of control
Assay type: cell-based
Conditions: compound 100 uM + 2DG (about 10-20 mM), two hour incubation
Method: In the present method, the method of using the available assays has been modified to measure the short-term effect of compounds of interest on ATP levels in the cells. […] Following treatment of the control and test cells with the metabolic inhibitor, the method calls for addition of the compound to be screened for anti-cancer properties to the cells. […] Following completion of the selected time period, the ATP level within the cell is determined. […]
# reported POC (percent of control) MCF7; entries follow

Sample records with POC (percent of control) MCF7:
Cc1ccc(S(=O)(=O)NCc2nccs2)cc1 :: 104% of control
O=S(=O)(NCc1ccco1)c1ccc(Cl)cc1 :: 87.3% of control

Recorded POC (percent of control) MCF7 (compound Cc1cccc2[nH]cc(CNS(=O)(=O)c3ccc(Cl)cc3)c12 ): 11.3% of control

Recorded POC (percent of control) MCF7 (compound CC(=O)n1cc(CNS(=O)(=O)c2ccc(Cl)cc2)c2ccccc21 ): 82.2% of control

Recorded POC (percent of control) MCF7 (compound Cc1ccc(S(=O)(=O)NCc2coc(C)n2)cc1 ): 121.1% of control

Recorded POC (percent of control) MCF7 (compound Cc1ccc(S(=O)(=O)NCc2cnccn2)cc1 ): 93.3% of control

Recorded POC (percent of control) MCF7 (compound COc1ncccc1CNS(=O)(=O)c1ccccc1 ): 89.7% of control
